Tested on: endothelial tube formation in co-cultures of ECFCs and ADSCs treated with VEGF
ASSAY NAME: cells
Format: cell-based, human
DETAILS: Homo sapiens, IC50 / EC50; endothelial tube area, ADSC/ECFC co-culture; read-out: Anti-Angiogenesis
QUANTITY: IC50 (µM)
Answer in µM, number only, no unit symbol.

Check out these entries, answers already filled in.
> print(dat)
                                   compound  experimental.result
1  C=C(C)[C@H]1Cc2c(ccc3c2O[C@@H]2COc4cc(OC)c(OC)cc4[C@@H]2C3=O)O1 [rotenone, reference compound]               0.0257
2          CCCCCCNC(=O)n1cc(F)c(=O)[nH]c1=O                 4.49

Consider now this further compound.
Reported IC50, compound NCCNc1ccc(NCCN)c2c1C(=O)c1ccncc1C2=O : ____ 0.0465
